Tested on: CYP2B6
Run Description: CYP2B6 enzyme induction assay in cryopreserved HepaRG cells (bupropion probe, LC/MS)
Format: in vitro ADME, human
Assay Setup: CYP2B6, HepaRG cells; positive in one batch in each of the three laboratories
Counter-ions that a name gives are not always drawn.
Reported Property: Induction in vitro

>>> value("O=C1NC(=O)C(c2ccccc2)(c2ccccc2)N1 [Phenytoin sodium]")
"Yes"
>>> value("COc1ccc2[nH]c([S+]([O-])Cc3ncc(C)c(OC)c3C)nc2c1 (stereo not drawn) [Omeprazole]")
"No"
>>> value("COc1ccccc1Oc1c(NS(=O)(=O)c2ccc(C(C)(C)C)cc2)nc(-c2ncccn2)nc1OCCO [Bosentan hydrate]")
"Yes"
>>> value("NC(=O)N1c2ccccc2C=Cc2ccccc21 [Carbamazepine]")
"Yes"

Query: Quick one: Induction in vitro of CC(C)NCC(O)c1ccc(NS(C)(=O)=O)cc1 (stereo not drawn) [Sotalol hydrochloride] ?
Reply: No

Query: Which value of Induction in vitro has been reported for CO[C@H]1/C=C/O[C@@]2(C)Oc3c(C)c(O)c4c(O)c(c(/C=N/N5CCN(C)CC5)c(O)c4c3C2=O)NC(=O)/C(C)=C\C=C\[C@H](C)[C@H](O)[C@@H](C)[C@@H](O)[C@@H](C)[C@H](OC(C)=O)[C@@H]1C [Rifampicin] in the records?
Reply: Yes
